# assay_method_text: NCI Yeast Anticancer Drug Screen. Data for the rad50EPP+ strain (AID 151);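 also: 0% = growth of vehicle-treated control cultures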
# recorded_conditions: S. cerevisiae rad50 mutant strain, at 100.0 µM, active compounds read high
The panel holds about 79,000 compounds, 15% with a hit somewhere; the sample as a whole holds those more often.
property_label: growth inhibition (%)
State just the number; it will be interpreted in %.

[in] What growth inhibition value was documented for this molecule, Cc1c2ccccc2cc2ccccc12 ?
[out] 98

[in] What growth inhibition value was documented for this molecule, O=C(O)CCCOc1cc(Cl)c(Cl)cc1Cl ?
[out] 70

[in] What growth inhibition value was documented for this molecule, Oc1cccnc1[Se] ?
[out] 96

[in] What growth inhibition value was documented for this molecule, Nc1nc(-c2ccccc2)c(-c2ccccc2)[se]1 ?
[out] 25

[in] What growth inhibition value was documented for this molecule, CC1=C(CO)C2=C(C)C3(CC3)[C@@](C)(O)C(=O)C2=C1 ?
[out] 0

[in] What growth inhibition value was documented for this molecule, O=C1c2ccccc2C(=O)C(Cl)C1Cl (stereo not given) ?
[out] 98

[in] What growth inhibition value was documented for this molecule, O=C(O)C1C2CCC(C2)C1c1ccccc1 (stereo not given) ?
[out] -3

[in] What growth inhibition value was documented for this molecule, Nc1nc(N)c2c(Cl)c(CNc3ccc(C(=O)NC(CC(=O)O)C(=O)O)cc3)ccc2n1 (stereo not given) ?
[out] 41

[in] What growth inhibition value was documented for this molecule, O=[N+]([O-])c1oc2ccc3ccccc3c2c1CCO ?
[out] 98

[in] What growth inhibition value was documented for this molecule, CS(=O)(=O)OCCN(CCOS(C)(=O)=O)c1ccc(C=O)cc1 ?
[out] 51

[in] What growth inhibition value was documented for this molecule, CCOC(=O)C1=C(C(=O)OCC)C2(c3ccccc3)N(O1)c1ccccc1C2(C)C (stereo not given) ?
[out] 15

[in] What growth inhibition value was documented for this molecule, COc1cc(C2c3cc4c(cc3[C@@H](Nc3ccc(N)cc3)C3COC(=O)[C@H]23)OCO4)cc(OC)c1O (stereo not given in full) ?
[out] 89

[in] What growth inhibition value was documented for this molecule, O=P(Oc1ccc(Cl)cc1)(Oc1ccc(Cl)cc1)N1CC1 ?
[out] -4

[in] What growth inhibition value was documented for this molecule, CN(C)CCSC1=Nc2ccc(Cl)cc2C(c2ccccc2Cl)=NC1 ?
[out] 0

[in] What growth inhibition value was documented for this molecule, CCCCCCCCCC[Se]C#N ?
[out] 97

[in] What growth inhibition value was documented for this molecule, CSc1ccccc1[As](C)C ?
[out] 99

[in] What growth inhibition value was documented for this molecule, CC1(C)N=C(N)N=C(N)N1c1cccc(N)c1.[Sn] ?
[out] -7

[in] What growth inhibition value was documented for this molecule, CCOP(=S)(S)OCC.[Pd] ?
[out] 8

[in] What growth inhibition value was documented for this molecule, C[C@@]12CCC(=O)C=C1CC[C@H]1C2=CC[C@]2(C)C1CC[C@@]2(C)O (stereo not given in full) ?
[out] 1

[in] What growth inhibition value was documented for this molecule, CCCCCNC(=O)c1c(O)[nH]c(=S)[nH]c1=O ?
[out] 78

[in] What growth inhibition value was documented for this molecule, O=[N+]([O-])c1cc(S(=O)(=O)F)ccc1Cl ?
[out] 99

[in] What growth inhibition value was documented for this molecule, CC[C@]1(O)CC(OC2CC(N(C)C)C(O)C(C)O2)c2c(cc3c(c2O)C(=O)c2c(O)cccc2C3=O)[C@@H]1C(=O)OC (stereo not given in full) ?
[out] 89

[in] What growth inhibition value was documented for this molecule, Nc1nnc(N)n1-n1c(N)nnc1N ?
[out] -16

[in] What growth inhibition value was documented for this molecule, CCC1(O)C(=O)OCc2c1cc1n(c2=O)Cc2cc3ccccc3nc2-1 (stereo not given) ?
[out] 86

[in] What growth inhibition value was documented for this molecule, CC1CC(Br)C(=O)O1 (stereo not given) ?
[out] 89
